test-system: alpha-thrombin (Homo sapiens, UniProt P00734;P00734 P00734:328-363,P00734:364-622)
method-description: filter; ±2.8; Fbmax 52.9; same buffer, 22 C
measure-name: Kd
Give the figure together with its unit, number first.

Ask | Query: Kd; subject: Clone 10 (ssRNA) RNA: GGAGACGGAAGGAUAACGAGCGCUUUGACACAAGAUACAAUAUAGUAAGUGACACCAAGCCCGG
Reply | 36.4 nM
